Listing: % inhibition of selected binders
Molecular target: T1, recombinant human DLL4 extracellular domain, C-terminally His-tagged (R&D Systems) (human, UniProt Q9NR61 25-522, biotinylated in the competition assays (sites not given))
T1 construct: also called rhDLL4; hDLL4; not shown: C-terminal His tag
T1 sequence (Q9NR61 25-522): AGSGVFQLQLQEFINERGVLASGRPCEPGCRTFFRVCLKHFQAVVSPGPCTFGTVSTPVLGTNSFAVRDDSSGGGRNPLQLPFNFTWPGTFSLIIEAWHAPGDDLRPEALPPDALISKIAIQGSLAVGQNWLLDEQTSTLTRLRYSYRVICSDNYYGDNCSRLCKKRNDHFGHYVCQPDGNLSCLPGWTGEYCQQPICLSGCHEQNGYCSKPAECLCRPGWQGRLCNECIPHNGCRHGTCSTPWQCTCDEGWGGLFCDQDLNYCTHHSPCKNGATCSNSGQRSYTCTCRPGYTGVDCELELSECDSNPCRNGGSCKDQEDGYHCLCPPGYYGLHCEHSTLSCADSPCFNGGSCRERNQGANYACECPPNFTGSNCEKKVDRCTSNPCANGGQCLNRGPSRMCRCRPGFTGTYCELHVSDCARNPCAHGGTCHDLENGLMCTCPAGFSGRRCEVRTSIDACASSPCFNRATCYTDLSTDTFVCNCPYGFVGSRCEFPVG
Assay: periplasmic extract; hDLL4/hNotch1 AlphaScreen
measured.property: % inhibition

- DLLBII28B06 (VHH, also called DLLBII28B6; not shown: C-terminal c-myc and His6 tags) VHH: EVQLVESGGGLVQAGGSLRLSCAASGSTFSTYAMGWYRQDPGNQRELVAAISSDGSTHYADSVKGRFTISRDNAKNTVYLQMNSLKPEDTAVYYCYAPVKVAGLEYDYWGQGTQVTVSS: 54%
- DLLBII19D10 (VHH, not shown: C-terminal c-myc and His6 tags) VHH: EVQLVESGGGLVQAGDSLRLSCAASGRTVGSYDMSWVRQGPGKEREWVSSINSGVGKTYYADSVKGRFTIFRDNAKNMVYLQMNNLKPEDTAVYYCATEMDGSRYVEGQGTQVTVSS: 85%
- DLLBII19F04 (VHH, also called DLLBII19F4; not shown: C-terminal c-myc and His6 tags) VHH: EVQLVESGGGLVQAEGSLRLSCAASGSTFSTYAMAWYRQAPGKQRELVAGISFDGSTHYAESVKGRFTISRDDAKNTVSLQMNSLKPEDAAVYYCYSVHPSTGFGSWGQGTQVTVSS: 95%
- DLLBII17F10 (VHH, not shown: C-terminal c-myc and His6 tags) VHH: EVQLVESGGGLVQAGGSLRLSCASSGRTLLNYAMGWFRQAPGKEREFVSGINWSGGSTYYADSVKGRFTISRDNAENTVYLHMNSLKPEDTAVYYCAAAHDNYWFTDDSLGRGLKYWGQGTQVTVSS: 88%
- DLLBII17C01 (VHH, also called DLLBII17C1; not shown: C-terminal c-myc and His6 tags) VHH: EVQLVESGGGLVQAGGSLRLSCAASGFTFDDYPIGWLRQAPGKEREGVSCISSSDDSTYYADSVKGRFTISSNNAKNTVYLQMNSLKPEDTAVYYCAVRLFSGGCAVVAGTSWADFGSSGQGTQVTVSS: 84%
